Below is a list of entries, each paired with its recorded relative viability value.
- Tested on: LCLC-97TM1
- assay.notes: relative viability (nuclei count vs DMSO), 5 days (fraction); higher = more cells survive
- protocol.conditions: first compound 0.08 µM
No unit in the answer, only the number.

compound: C=C1C(=O)O[C@@H](CCCCCCCC)[C@@H]1C(=O)O [C-75] + CS(=O)(=O)N1CCN(Cc2cc3nc(-c4cccc5[nH]ncc45)nc(N4CCOCC4)c3s2)CC1 [Pictilisib] (partner 1 µM)
assayed.system: LCLC-97TM1
relative viability: 0.234
--
compound: C=C1C(=O)O[C@@H](CCCCCCCC)[C@@H]1C(=O)O [C-75] + COc1cccc2cc(-c3nc([C@H]4CC[C@H](C(=O)O)CC4)n4ncnc(N)c34)[nH]c12 [OSI-027] (partner 0.5 µM)
assayed.system: LCLC-97TM1
relative viability: 0.554
--
compound: Oc1nc(-c2ccc(C(F)(F)F)cc2)nc2c1CSCC2 [XAV939] + Cc1cc(Nc2cc(N3CCN(C)CC3)nc(Sc3ccc(NC(=O)C4CC4)cc3)n2)n[nH]1 [Tozasertib] (partner 0.1 µM)
assayed.system: LCLC-97TM1
relative viability: 0.344
--
compound: Oc1nc(-c2ccc(C(F)(F)F)cc2)nc2c1CSCC2 [XAV939] + NC(=O)Nc1cc(-c2cccc(F)c2)sc1C(=O)N[C@H]1CCCNC1 [AZD7762] (partner 0.2 µM)
assayed.system: LCLC-97TM1
relative viability: 0.446
--
compound: Oc1nc(-c2ccc(C(F)(F)F)cc2)nc2c1CSCC2 [XAV939] + Nc1ncn([C@H]2C[C@H](O)[C@@H](CO)O2)c(=O)n1 [Decitabine] (partner 2 µM)
assayed.system: LCLC-97TM1
relative viability: 0.211
--
compound: C=C1C(=O)O[C@@H](CCCCCCCC)[C@@H]1C(=O)O [C-75] + CC(C)C[C@H](NC(=O)[C@H](Cc1ccccc1)NC(=O)c1cnccn1)B(O)O [Bortezomib] (partner 0.002 µM)
assayed.system: LCLC-97TM1
relative viability: 0.636
--
compound: Oc1nc(-c2ccc(C(F)(F)F)cc2)nc2c1CSCC2 [XAV939] + Nc1nc2[nH]cc(CCc3ccc(C(=O)N[C@@H](CCC(=O)O)C(=O)O)cc3)c2c(=O)[nH]1 [Pemetrexed] (partner 0.2 µM)
assayed.system: LCLC-97TM1
relative viability: 0.234
--
compound: Oc1nc(-c2ccc(C(F)(F)F)cc2)nc2c1CSCC2 [XAV939] + CC1(C)CCC(c2ccc(Cl)cc2)=C(CN2CCN(c3ccc(C(=O)NS(=O)(=O)c4ccc(N[C@H](CCN5CCOCC5)CSc5ccccc5)c(S(=O)(=O)C(F)(F)F)c4)cc3)CC2)C1 [Navitoclax] (partner 0.5 µM)
assayed.system: LCLC-97TM1
relative viability: 0.534
--
compound: Oc1nc(-c2ccc(C(F)(F)F)cc2)nc2c1CSCC2 [XAV939] + CC(=O)Nc1cccc(-n2c(=O)n(C3CC3)c(=O)c3c(Nc4ccc(I)cc4F)n(C)c(=O)c(C)c32)c1 [Trametinib] (partner 0.02 µM)
assayed.system: LCLC-97TM1
relative viability: 0.213

Now for the compound whose relative viability we want.
The compound identified as Oc1nc(-c2ccc(C(F)(F)F)cc2)nc2c1CSCC2 [XAV939] + O=C(CCCCCCC(=O)Nc1ccccc1)NO [Vorinostat] (partner 1 µM) registered its relative viability at 1.05

----------
- System: LU99A
- assay.notes: relative viability (nuclei count vs DMSO), 5 days (fraction); higher = more cells survive
- protocol.conditions: first compound 0.253 µM
So basically: is relative viability under 0.5? Then Yes. Not under? Then No.

Observe how each entry below is paired with its result.
molecule: C=C1C(=O)O[C@@H](CCCCCCCC)[C@@H]1C(=O)O [C-75] + CS(=O)(=O)CCNCc1ccc(-c2ccc3ncnc(Nc4ccc(OCc5cccc(F)c5)c(Cl)c4)c3c2)o1 [Lapatinib] (partner 2 µM)
assayed.system: LU99A
category.label: No
--
molecule: C=C1C(=O)O[C@@H](CCCCCCCC)[C@@H]1C(=O)O [C-75] + CC(C)C[C@H](NC(=O)[C@H](Cc1ccccc1)NC(=O)c1cnccn1)B(O)O [Bortezomib] (partner 0.002 µM)
assayed.system: LU99A
category.label: No
--
molecule: C=C1C(=O)O[C@@H](CCCCCCCC)[C@@H]1C(=O)O [C-75] + COc1cc2c(Oc3ccc(NC(=O)C4(C(=O)Nc5ccc(F)cc5)CC4)cc3F)ccnc2cc1OCCCN1CCOCC1 [Foretinib] (partner 0.25 µM)
assayed.system: LU99A
category.label: No

Pending molecule:
Please state whether relative viability is below 0.5 for C=C1C(=O)O[C@@H](CCCCCCCC)[C@@H]1C(=O)O [C-75] + CC(=O)Nc1cccc(-n2c(=O)n(C3CC3)c(=O)c3c(Nc4ccc(I)cc4F)n(C)c(=O)c(C)c32)c1 [Trametinib] (partner 0.02 µM) No

----------
Here the recorded relative viability is given for each entry.
- Test system: NCI-H650
- assay.notes: relative viability (nuclei count vs DMSO), 5 days (fraction); higher = more cells survive
- protocol.conditions: first compound 0.3162 µM
Keep it simple and answer with nothing but the number.

compound: NC(=O)Nc1cc(-c2cccc(F)c2)sc1C(=O)N[C@H]1CCCNC1 [AZD7762] + CC(C)C[C@H](NC(=O)[C@H](Cc1ccccc1)NC(=O)c1cnccn1)B(O)O [Bortezomib] (partner 0.002 µM)
relative viability: 0.687
//
compound: NC(=O)Nc1cc(-c2cccc(F)c2)sc1C(=O)N[C@H]1CCCNC1 [AZD7762] + CS(=O)(=O)N1CCN(Cc2cc3nc(-c4cccc5[nH]ncc45)nc(N4CCOCC4)c3s2)CC1 [Pictilisib] (partner 1 µM)
relative viability: 1

Now look at this one.
The value of relative viability recorded for NC(=O)Nc1cc(-c2cccc(F)c2)sc1C(=O)N[C@H]1CCCNC1 [AZD7762] + C[C@]1(O)C[C@@H](c2nc(-c3ccc4ccc(-c5ccccc5)nc4c3)c3c(N)nccn32)C1 [Linsitinib] (partner 1 µM) when tested on NCI-H650 reads 0.843

----------
This section presents compounds with their documented relative viability values.
- Test system: HOP-62
- assay.notes: relative viability (nuclei count vs DMSO), 5 days (fraction); higher = more cells survive
- protocol.conditions: first compound 0.05 µM
// return a plain number; no unit text

Consider the reported relative viability for these compounds:
compound: CC1(C)CCC(c2ccc(Cl)cc2)=C(CN2CCN(c3ccc(C(=O)NS(=O)(=O)c4ccc(N[C@H](CCN5CCOCC5)CSc5ccccc5)c(S(=O)(=O)C(F)(F)F)c4)cc3)CC2)C1 [Navitoclax] + CCNC(=O)c1noc(-c2cc(C(C)C)c(O)cc2O)c1-c1ccc(CN2CCOCC2)cc1 [Luminespib] (partner 0.01 µM)
assayed.system: HOP-62
relative viability: 0.895

compound: CC1(C)CCC(c2ccc(Cl)cc2)=C(CN2CCN(c3ccc(C(=O)NS(=O)(=O)c4ccc(N[C@H](CCN5CCOCC5)CSc5ccccc5)c(S(=O)(=O)C(F)(F)F)c4)cc3)CC2)C1 [Navitoclax] + CS(=O)(=O)N1CCN(Cc2cc3nc(-c4cccc5[nH]ncc45)nc(N4CCOCC4)c3s2)CC1 [Pictilisib] (partner 1 µM)
assayed.system: HOP-62
relative viability: 0.5

Reported relative viability ( CC1(C)CCC(c2ccc(Cl)cc2)=C(CN2CCN(c3ccc(C(=O)NS(=O)(=O)c4ccc(N[C@H](CCN5CCOCC5)CSc5ccccc5)c(S(=O)(=O)C(F)(F)F)c4)cc3)CC2)C1 [Navitoclax] + CC(C)C[C@H](NC(=O)[C@H](Cc1ccccc1)NC(=O)c1cnccn1)B(O)O [Bortezomib] (partner 0.002 µM) ) = 0.82

----------
- Test system: NCI-H1915
- assay.notes: relative viability (nuclei count vs DMSO), 5 days (fraction); higher = more cells survive
- protocol.conditions: first compound 0.1265 µM
The entries below are paired with their reported relative viability.
Please reply with the value in numeric form only.

compound: O=C(O)c1ccc(-c2c[nH]c3ncc(-c4ccccc4)cc23)cc1C1CCCC1 + O=C(c1cc(Cc2n[nH]c(=O)c3ccccc23)ccc1F)N1CCN(C(=O)C2CC2)CC1 [Olaparib] (partner 8 µM)
numeric.readout: 0.25
--
compound: O=C(O)c1ccc(-c2c[nH]c3ncc(-c4ccccc4)cc23)cc1C1CCCC1 + O=C(CCCCCCC(=O)Nc1ccccc1)NO [Vorinostat] (partner 1 µM)
numeric.readout: 0.525
--
compound: O=C(O)c1ccc(-c2c[nH]c3ncc(-c4ccccc4)cc23)cc1C1CCCC1 + CC(C)C[C@H](NC(=O)[C@H](Cc1ccccc1)NC(=O)c1cnccn1)B(O)O [Bortezomib] (partner 0.002 µM)
numeric.readout: 0.949

Form: compound = O=C(O)c1ccc(-c2c[nH]c3ncc(-c4ccccc4)cc23)cc1C1CCCC1 + Cc1nc(Nc2ncc(C(=O)Nc3c(C)cccc3Cl)s2)cc(N2CCN(CCO)CC2)n1 [Dasatinib] (partner 0.075 µM) ; relative viability = 0.331

Record O=C(O)c1ccc(-c2c[nH]c3ncc(-c4ccccc4)cc23)cc1C1CCCC1 + CCNC(=O)c1noc(-c2cc(C(C)C)c(O)cc2O)c1-c1ccc(CN2CCOCC2)cc1 [Luminespib] (partner 0.01 µM) . Reported relative viability: 0.714

In plain terms, O=C(O)c1ccc(-c2c[nH]c3ncc(-c4ccccc4)cc23)cc1C1CCCC1 + Nc1ncn([C@H]2C[C@H](O)[C@@H](CO)O2)c(=O)n1 [Decitabine] (partner 2 µM) has a documented relative viability of 0.229
